Entry source: paper doi:10.1101/2025.09.30.679521v1

targetEntity: SARS-CoV-2 nsp14 (Severe acute respiratory syndrome coronavirus 2)
Construct: gene rep
protocolSummary: RapidFire MS methyltransferase assay
Type: biochemical
pIC50: −log10 of the molar value.
# binarize pIC50: threshold 6 inclusive, high side TRUE, low side FALSE

{"columns": ["compound", "targetEntity", "assignedCategory"],
 "data": [
  ["CCCCCCSC[C@H]1O[C@@H](n2cnc3c(N)ncnc32)[C@H](O)[C@@H]1O [compound 4]", "SARS-CoV-2 nsp14 (Severe acute respiratory syndrome coronavirus 2)", "FALSE"],
  ["N#Cc1cn([C@@H]2O[C@H](CSc3nc4ccccc4s3)[C@@H](O)[C@H]2O)c2ncnc(N)c12 [compound 29]", "SARS-CoV-2 nsp14 (Severe acute respiratory syndrome coronavirus 2)", "TRUE"],
  ["C#Cc1cn([C@@H]2O[C@H](CSc3nc4ccccc4s3)[C@@H](O)[C@H]2O)c2ncnc(N)c12 [compound 30]", "SARS-CoV-2 nsp14 (Severe acute respiratory syndrome coronavirus 2)", "TRUE"],
  ["Cc1ccc2nc(SC[C@H]3O[C@@H](n4cnc5c(N)ncnc54)[C@H](O)[C@@H]3O)sc2c1 [compound 2]", "SARS-CoV-2 nsp14 (Severe acute respiratory syndrome coronavirus 2)", "TRUE"],
  ["Cc1ccc2ccc(SC[C@H]3O[C@@H](n4cnc5c(N)ncnc54)[C@H](O)[C@@H]3O)nc2c1 [compound 9]", "SARS-CoV-2 nsp14 (Severe acute respiratory syndrome coronavirus 2)", "TRUE"]
]}
